Data origin: PubChem BioAssay AID2315

# assay_overview: A qHTS for Small Molecule Inhibitors of Shiga Toxin
# stated_conditions: Vero cells, Shiga toxin protein synthesis inhibition reporter; at 38.7 µM, stronger effect = higher value
Screen size: about 290,000 compounds; about 27,000 (9.3%) were called active. What follows is part of a selection rich in actives, with near analogues and random picks from the rest.
measured_property: inhibition

Here's what some known entries look like.
Clc1ccccc1CSc1nnc(-c2ccco2)c(-c2ccco2)n1 | -3.95% (inactive)
COc1ccc(C(=O)COC(=O)c2ccc3ccccc3n2)cc1 | 28.4% (inactive)
COc1ccc(NC(=O)CSc2ccc(-c3ccco3)nn2)c(OC)c1 | -11.2% (inactive)
COc1ccc(N(Cc2ccccc2)S(=O)(=O)c2cccc(C(=O)O)c2)cc1 | -12.2% (inactive)
CCSc1nc(O)c(C(c2cccc(OC)c2)c2c(O)nc(SCC)[nH]c2=O)c(=O)[nH]1 | 19.1% (inactive)

Qu. Write down inhibition measured for item Cc1cc(SCc2c(F)cccc2Cl)nc(=O)[nH]1
Ans. 5.47% (inactive)

Qu. Look up and report measured inhibition for this entry: COc1ccc(NS(=O)(=O)c2cc(NC(=O)C3CCCCC3)ccc2N2CCOCC2)cc1
Ans. -4.94% (inactive)

Qu. Give inhibition for the following compound: Brc1ccc(CSc2ccc(-c3ccco3)nn2)cc1
Ans. 99.8% (active)

Qu. Identify measured inhibition associated with Fc1cccc(Cl)c1CSc1ccc(-c2ccco2)nn1
Ans. 89% (active)

Qu. Note inhibition for the compound shown: CC(OC(=O)c1ccc2ccccc2n1)C(=O)c1ccccc1 (stereo unspecified)
Ans. 86.7% (active)

* * *

# assay_overview: A qHTS for Small Molecule Inhibitors of Shiga Toxin
# stated_conditions: Vero cells, Shiga toxin protein synthesis inhibition reporter; at 38.7 µM, stronger effect = higher value
In all, about 290,000 compounds went through this assay and about 27,000 (9.3%) were called active. This excerpt belongs to a sample that is enriched for actives.
Outcome label depends on inhibition relative to 30%: at/above gives 1 (yes), below gives 0 (no).

A selection of reference data follows.
COc1ccc(C(=O)NCCc2ccc(S(N)(=O)=O)cc2)cc1OC | 0 (no)
CSCCNC(=O)c1ccc2nc(Cc3ccccc3F)oc2c1 | 1 (yes)

Qu. Could you please find out whether O=C1CCN(CCc2ccccc2)CCN1CCOc1ccccc1 has inhibition that meets 30% or exceeds it?
Ans. 0 (no)

Qu. Answer whether inhibition of C[C@H](NC(=O)[C@@H]1Cc2ccccc2CN1C(=O)OC(C)(C)C)C(=O)NC1CCCC1 is greater than or equal to 30%.
Ans. 0 (no)

* * *

# assay_overview: A qHTS for Small Molecule Inhibitors of Shiga Toxin
# stated_conditions: Vero cells, Shiga toxin protein synthesis inhibition reporter; at 38.7 µM, stronger effect = higher value
The campaign covered roughly 290,000 compounds. About 27,000 (9.3%) were called active. The entries come from a sample that favours actives as a whole.
# inhibition listing for each entry below

Qu. Using known records, supply inhibition for COc1ccc(-c2c(C#Cc3ccccc3)c3ccccc3n2C)cc1
Ans. 43.7% (active)

Qu. Please give the documented inhibition of O=c1[nH]c(/C=C\c2cccc(C(F)(F)F)c2)nc(O)c1[N+](=O)[O-]
Ans. -8.88% (inactive)

Qu. Answer with reported inhibition of Cc1cc(/C=C2/NC(=O)NC2=O)c(C)n1-c1cccnc1
Ans. 44.4% (inactive)

Qu. Provide inhibition value for the following compound: Cc1ccccc1-n1c(C)cc(/C=C2\NC(=O)NC2=O)c1C
Ans. 55.3% (active)

Qu. Report measured inhibition; entry is O=C(Nc1ccccc1N1CCOCC1)c1ccc(OCc2cscn2)cc1
Ans. 3.77% (inactive)

Qu. Let me know recorded inhibition for COc1ccc(NC(=O)NNC(=O)COc2cc(C)c(Cl)c(C)c2)c(OC)c1 , thanks.
Ans. -7.12% (inactive)

Qu. Let me know recorded inhibition for CC1(C)NC(=O)N(CC(=O)Nc2cc(C(F)(F)F)cc(C(F)(F)F)c2)C1=O , thanks.
Ans. 10.9% (inactive)

* * *

# assay_overview: A qHTS for Small Molecule Inhibitors of Shiga Toxin
# stated_conditions: Vero cells, Shiga toxin protein synthesis inhibition reporter; at 38.7 µM
The campaign covered roughly 290,000 compounds. About 27,000 (9.3%) were called active. No stated cut-off is given here; in the data, active means inhibition mostly above about 28% (no sharp cut-off); inactive means mostly below about 43%. For the sample, actives were picked, then their nearest neighbours and some compounds at random.
Returns: one label drawn from class 1 (active), class 0 (inactive)

Before answering, review these 3 worked examples.
O=C(CN(Cc1ccccc1)C(=O)CCC(=O)Nc1ccccn1)NCCc1ccccc1 | class 0
COc1cccc(CNC(=O)C2CC(=O)N(C3CCCCCCC3)C2)c1 (stereo not drawn) | class 0
CCOC(=O)C1(Cc2ccccc2C)CCCN(C(=O)CN2C(=O)CSC2=O)C1 (stereo not drawn) | class 1

Qu. Which outcome did this test record for the compound COCCNC(=O)c1ccc(S(=O)(=O)c2ccc(Cl)cc2)c(NC(C)=O)c1 ?
Ans. class 0

Qu. # fetch the recorded call for O=C(CN1C(=O)CSC1=O)N1CCCC(Nc2ccc(F)cc2)C1 (stereo not drawn) here
Ans. class 0

Qu. // return assay outcome for O=C(NCc1ccccc1)C(c1ccccc1)N(C(=O)c1csnn1)c1ccc(F)cc1 (stereo not drawn)
Ans. class 0

* * *

# assay_overview: A qHTS for Small Molecule Inhibitors of Shiga Toxin
# stated_conditions: Vero cells, Shiga toxin protein synthesis inhibition reporter; at 38.7 µM, stronger effect = higher value
Screen size: about 290,000 compounds; about 27,000 (9.3%) were called active. Shown is part of a subset that was picked to be rich in actives.
# inhibition per entry
The reply should be a number in %, with the unit left off.

Would you please look over these solved cases?
O=C(COc1ccc(Cl)cc1)Nc1ccc2oc(=O)ccc2c1 | 6.26
CCCCC(=O)Nc1ccc2c(c1)OCCO2 | 70.5
CCC(C)(C)NC(=O)CN(C(=O)C(=O)Nc1ccc2c(c1)OCCO2)C(C)(C)CC | 15.3
COc1ccc(C(=O)N2CCCCC2C(=O)Nc2ccc(-n3nc(C)cc3C)cc2)o1 (centres undefined) | -7.96
C=C1CCN(Cc2ccc(OC)cc2)S(=O)(=O)c2ccccc21 | -5.84
COc1ccccc1OCc1nc2ccccc2s1 | 63.5

Qu. For CCCNC(=O)c1c(Cl)cnn1-c1ccc(C)cc1 , write its inhibition.
Ans. 59.9

Qu. Hello, please tell me recorded inhibition for this one: COC(=O)CCNc1ccc2c(c1)OCCO2
Ans. 155

Qu. Could you please provide reported inhibition for CCC(C(=O)Nc1ccc2c(c1)OCCO2)c1ccccc1 (centres undefined) ? Thanks!
Ans. 34.4

* * *

# assay_overview: A qHTS for Small Molecule Inhibitors of Shiga Toxin
# stated_conditions: Vero cells, Shiga toxin protein synthesis inhibition reporter; at 38.7 µM, stronger effect = higher value
Screen size: about 290,000 compounds; about 27,000 (9.3%) were called active. The sample holds actives, similar compounds and a random draw of the others, so the mix is not that of the screen.
Listed below: inhibition values for each entry.
Could you give me the number in %? Just the number is fine.

Qu. For Cc1cccc(C)c1NC(=O)CS(=O)CC(=O)N1CCN(c2ccccc2)CC1 (stereo not given) , write its inhibition.
Ans. -9.06

Qu. Assign inhibition to the following record: CC(=O)Nc1ccc(NS(=O)(=O)c2ccc3c(c2)NC(=O)CC(=O)N3)cc1
Ans. -11.9

Qu. For the compound CCC(C)(C)NC(=O)C(c1ccc(O)cc1)N(Cc1ccco1)C(=O)CCC(=O)Nc1ccccn1 (stereo not given) , give its measured inhibition value.
Ans. -12.1

Qu. For the compound CC(=O)c1ccc(S(=O)(=O)NCc2nnnn2-c2ccccc2)cc1 , give its reported inhibition.
Ans. -2.55

Qu. Give the reported inhibition for this compound. Cc1cc(C)nc(Nc2cc([N+](=O)[O-])ccc2C)n1
Ans. -5.77

Qu. Consider the compound Nc1nc(CC(=O)CSc2ccc(Cl)cc2)nc(Nc2ccc(F)cc2)n1 and give its recorded inhibition.
Ans. -6.2

Qu. Determine its reported inhibition: COc1ccccc1C(=O)N/C(=C/c1ccco1)C(=O)Nc1ccc(C(=O)O)cc1
Ans. -2.72

Qu. Return inhibition for the following compound: Cc1ccc(-c2cn(S(=O)(=O)c3cccc([N+](=O)[O-])c3)nc2N)cc1
Ans. 13.5

Qu. Given the compound COCc1c(C(=O)N/N=C(\C)c2ccncc2)nnn1-c1nonc1N , write its reported inhibition.
Ans. -3.05

Qu. Kindly indicate its recorded inhibition. Item: O=C(c1cccc(Cl)c1)N1CCN(Cc2ccccc2)CC1
Ans. -19.8

* * *

# assay_overview: A qHTS for Small Molecule Inhibitors of Shiga Toxin
# stated_conditions: Vero cells, Shiga toxin protein synthesis inhibition reporter; at 38.7 µM
Hit rate of the full screen: of about 290,000 compounds, about 27,000 (9.3%) were called active. Rule as the data show it: active = inhibition mostly above about 28% (no sharp cut-off); inactive = mostly below about 43%. The list comes from a sample in which actives are over-represented; it also holds close analogues and randomly drawn compounds.
Respond with a class label; see active, inactive

Past entries and their recorded results:
CCc1cc(C(=O)c2ccc(OC)cc2)c(NC(=O)CN2CCN(C)CC2)s1 | inactive
COc1ccc(C(=O)NC(=S)NC2CCCCC2)cc1 | active
Cc1cc(C)nc(Nc2n[nH]c(-c3ccccc3N)n2)n1 | active
Cn1nccc1C(=O)NC1CCCc2c1cnn2-c1ccccc1F (stereo unspecified) | inactive

Qu. Tell me the assay call for CCOC(=O)N1CCN(Cc2nc3cc(NC(C)=O)ccc3n2C)CC1 please.
Ans. inactive

Qu. Please state the recorded outcome for this compound: Cc1cccc(N(C)C(=O)CN2C(=O)COc3ccc(S(=O)(=O)N4CCCCCC4)cc32)c1
Ans. inactive
